B1: library; a variant is named by its letters at N, in order (parent)
chain: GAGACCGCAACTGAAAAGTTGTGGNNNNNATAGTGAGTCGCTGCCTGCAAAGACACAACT

# Variants of: B1
# Protocol: ligation selection enrichment (abundance after / before one-round selection) (fold); higher = more template-directed ligation activity
# Measurement parameters: with T7Psub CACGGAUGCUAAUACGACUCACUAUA; MgCl2 25 mM; 42 °C; 4 h; pH 8.5
Label rule met for high-side ligation selection enrichment (at or above 0.3) and rule not met for low-side ligation selection enrichment (below it).

{"columns": ["Mutation key", "Category"],
 "data": [
  ["TATCA", "rule met"],
  ["CACTC", "rule not met"],
  ["CAGGG", "rule not met"],
  ["GACCA", "rule not met"],
  ["CATGG", "rule not met"],
  ["ATCGG", "rule met"],
  ["TCTGG", "rule met"],
  ["TCATG", "rule not met"],
  ["CAGCT", "rule met"],
  ["GGATT", "rule met"],
  ["ATCCT", "rule met"],
  ["GGCAC", "rule met"],
  ["GGTTC", "rule not met"],
  ["TAAAA", "rule not met"],
  ["GTACT", "rule met"],
  ["ACATA", "rule not met"],
  ["CTAGC", "rule not met"],
  ["GTTCA", "rule met"],
  ["GAATC", "rule not met"],
  ["TAGAG", "rule met"],
  ["ATCGA", "rule met"],
  ["AACCG", "rule met"],
  ["CCTGT", "rule not met"],
  ["TTCAA", "rule met"],
  ["TCACC", "rule not met"],
  ["CTCGT", "rule not met"],
  ["AATCG", "rule met"],
  ["AACTA", "rule not met"],
  ["GCCAC", "rule not met"],
  ["CCACC", "rule not met"],
  ["CGTTT", "rule met"],
  ["GGACC", "rule not met"],
  ["CGTCG", "rule met"],
  ["TGCAA", "rule not met"],
  ["AGCTG", "rule not met"],
  ["TTTGC", "rule met"],
  ["ATGGC", "rule not met"],
  ["CTCGG", "rule not met"],
  ["AGCCC", "rule not met"],
  ["TTCCG", "rule met"],
  ["CACCA", "rule not met"],
  ["CAACT", "rule met"],
  ["CTAAC", "rule not met"],
  ["ATTGG", "rule met"],
  ["CCTGA", "rule not met"],
  ["GTTGG", "rule met"],
  ["GTTAA", "rule met"],
  ["TTTAT", "rule met"],
  ["CTATT", "rule met"],
  ["AAATC", "rule not met"],
  ["TGATA", "rule met"],
  ["CAGAA", "rule met"],
  ["AAAAC", "rule not met"],
  ["CTCAA", "rule not met"],
  ["CTGAC", "rule met"],
  ["GGTAC", "rule met"],
  ["TCAGT", "rule not met"],
  ["GTGCT", "rule met"],
  ["AGTAT", "rule met"],
  ["ACGAT", "rule met"],
  ["TTATC", "rule not met"],
  ["CCCGC", "rule not met"],
  ["TCTGT", "rule not met"],
  ["GCGCA", "rule not met"],
  ["CGAGT", "rule met"],
  ["TCCGG", "rule not met"],
  ["TAAAC", "rule not met"],
  ["AACCA", "rule not met"],
  ["TGCTG", "rule not met"],
  ["TTATT", "rule not met"],
  ["AGCGA", "rule met"],
  ["CTCGC", "rule not met"],
  ["TAGGG", "rule met"],
  ["AATCT", "rule met"],
  ["GGTCG", "rule met"],
  ["ACGGT", "rule not met"],
  ["CAGCG", "rule met"],
  ["CGCGC", "rule not met"],
  ["CTGCA", "rule not met"],
  ["TGGTA", "rule met"],
  ["TCAGC", "rule not met"],
  ["TTCAC", "rule met"],
  ["AAGGA", "rule met"],
  ["AACAG", "rule not met"],
  ["TACCC", "rule not met"],
  ["CTGTC", "rule not met"],
  ["AATCC", "rule met"],
  ["AGTAC", "rule met"],
  ["CCTCT", "rule not met"],
  ["AGTCA", "rule met"]
]}
